# Tested on: Escherichia coli TOP10;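 also: peptides expressed intracellularly from a pBAD plasmid library in pooled LB shake-flask culture, induced with 0.3% L-arabinose, DNA abundance read by NGS, three biological replicates, DESeq2 with apeglm shrinkage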
# Protocol details: shrunken log2 fold change of peptide-encoding DNA abundance (4.5 h post-induction vs induction); higher = less antimicrobial activity (less host growth inhibition)
# Test parameters: time post-induction: 4.5 h; library: site-saturation at positions 5, 18, 19, 20
Test readout: shrunken log2 fold change
Lab note: write the figure by itself, no unit.

Problem: So what does the record say about shrunken log2 fold change for RRIRWRPPRLPRPRPRPFSYPRP ?
Solution: -0.203

Problem: Now the sequence RRIRYRPPRLPRPRPRPAQDPRP
Solution: 0.188

Problem: Now the sequence RRIRVRPPRLPRPRPRPDVMPRP
Solution: -0.00879

Problem: Now the sequence RRIRWRPPRLPRPRPRPCLWPRP
Solution: 0.0333

Problem: Now the sequence RRIRKRPPRLPRPRPRPTWVPRP
Solution: -0.105

Problem: Now the sequence RRIRVRPPRLPRPRPRPIWSPRP
Solution: 0.0334

Problem: Now the sequence RRIRCRPPRLPRPRPRPHLIPRP
Solution: 0.282

Problem: Now the sequence RRIRRRPPRLPRPRPRPIFYPRP
Solution: -0.0503

Problem: Now the sequence RRIRRRPPRLPRPRPRPRAMPRP
Solution: 0.145

Problem: Now the sequence RRIRPRPPRLPRPRPRPCQQPRP
Solution: -0.119

Problem: Now the sequence RRIRKRPPRLPRPRPRPTGYPRP
Solution: 0.214

Problem: Now the sequence RRIRPRPPRLPRPRPRPTWHPRP
Solution: 0.316

Problem: Now the sequence RRIRIRPPRLPRPRPRPWDYPRP
Solution: -0.00975

Problem: Now the sequence RRIRFRPPRLPRPRPRPKKSPRP
Solution: 0.158

Problem: Now the sequence RRIRRRPPRLPRPRPRPHHNPRP
Solution: -0.393

Problem: Now the sequence RRIRFRPPRLPRPRPRPVFPPRP
Solution: -0.224

Problem: Now the sequence RRIRRRPPRLPRPRPRPRIGPRP
Solution: 0.0791

Problem: Now the sequence RRIRGRPPRLPRPRPRPPKGPRP
Solution: 0.673

Problem: Now the sequence RRIRMRPPRLPRPRPRPEYLPRP
Solution: -0.082

Problem: Now the sequence RRIRPRPPRLPRPRPRPLEEPRP
Solution: 0.215

Problem: Now the sequence RRIRTRPPRLPRPRPRPFSMPRP
Solution: -0.0868

Problem: Now the sequence RRIRHRPPRLPRPRPRPKTGPRP
Solution: -0.0854

Problem: Now the sequence RRIRPRPPRLPRPRPRPMNIPRP
Solution: -0.793

Problem: Now the sequence RRIRHRPPRLPRPRPRPSWCPRP
Solution: -0.453

Problem: Now the sequence RRIRHRPPRLPRPRPRPGTGPRP
Solution: -0.0184

Problem: Now the sequence RRIRNRPPRLPRPRPRPMFRPRP
Solution: -0.0515

Problem: Now the sequence RRIRIRPPRLPRPRPRPLEFPRP
Solution: -0.196

Problem: Now the sequence RRIRRRPPRLPRPRPRPMGDPRP
Solution: -0.251

Problem: Now the sequence RRIRCRPPRLPRPRPRPAMMPRP
Solution: -0.0414

Problem: Now the sequence RRIRARPPRLPRPRPRPAHIPRP
Solution: 0.241

Problem: Now the sequence RRIRGRPPRLPRPRPRPQHFPRP
Solution: 0.139

Problem: Now the sequence RRIRARPPRLPRPRPRPWIMPRP
Solution: -0.332

Problem: Now the sequence RRIRQRPPRLPRPRPRPSSLPRP
Solution: -0.728

Problem: Now the sequence RRIRPRPPRLPRPRPRPKCPPRP
Solution: 0.131

Problem: Now the sequence RRIRRRPPRLPRPRPRPDSTPRP
Solution: 0.187

Problem: Now the sequence RRIRHRPPRLPRPRPRPTILPRP
Solution: -0.194

Problem: Now the sequence RRIRSRPPRLPRPRPRPSIAPRP
Solution: -0.167

Problem: Now the sequence RRIRIRPPRLPRPRPRPPTHPRP
Solution: -0.184

Problem: Now the sequence RRIRYRPPRLPRPRPRPPLFPRP
Solution: -0.0411

Problem: Now the sequence RRIRTRPPRLPRPRPRPCTEPRP
Solution: -0.237

Problem: Now the sequence RRIRYRPPRLPRPRPRPMHGPRP
Solution: 0.00652

Problem: Now the sequence RRIRHRPPRLPRPRPRPGYSPRP
Solution: 0.0976

Problem: Now the sequence RRIRQRPPRLPRPRPRPMMTPRP
Solution: 0.0172

Problem: Now the sequence RRIRGRPPRLPRPRPRPQYDPRP
Solution: 0.101

Problem: Now the sequence RRIRFRPPRLPRPRPRPIANPRP
Solution: -0.0564

Problem: Now the sequence RRIRWRPPRLPRPRPRPNDGPRP
Solution: -0.00211

Problem: Now the sequence RRIRARPPRLPRPRPRPRHMPRP
Solution: -0.00102

Problem: Now the sequence RRIRTRPPRLPRPRPRPGTPPRP
Solution: 0.0833

Problem: Now the sequence RRIRIRPPRLPRPRPRPIEQPRP
Solution: -0.489

Problem: Now the sequence RRIRERPPRLPRPRPRPVIGPRP
Solution: -0.108

Problem: Now the sequence RRIRLRPPRLPRPRPRPWNFPRP
Solution: -0.0899

Problem: Now the sequence RRIRIRPPRLPRPRPRPLWLPRP
Solution: -0.208

Problem: Now the sequence RRIRLRPPRLPRPRPRPLIAPRP
Solution: -0.498

Problem: Now the sequence RRIRFRPPRLPRPRPRPDYAPRP
Solution: -1.13

Problem: Now the sequence RRIRERPPRLPRPRPRPMNDPRP
Solution: -0.0199

Problem: Now the sequence RRIRSRPPRLPRPRPRPQTMPRP
Solution: -0.35

Problem: Now the sequence RRIRTRPPRLPRPRPRPAQFPRP
Solution: -0.0946

Problem: Now the sequence RRIRVRPPRLPRPRPRPKCAPRP
Solution: 0.0145

Problem: Now the sequence RRIRDRPPRLPRPRPRPCCFPRP
Solution: 0.395

Problem: Now the sequence RRIRQRPPRLPRPRPRPVCGPRP
Solution: 0.205

Problem: Now the sequence RRIRARPPRLPRPRPRPHFMPRP
Solution: 0.787

Problem: Now the sequence RRIRFRPPRLPRPRPRPSEVPRP
Solution: -0.0167

Problem: Now the sequence RRIRERPPRLPRPRPRPNKGPRP
Solution: -0.164
